- Procedure summary: Residual rate (A90/A0×100) after 90 h accelerated deterioration in xenon weather meter X25, color developing durability
- Assay type: physicochemical
- Experimental context: cured product by kneading method, 1 mm; xenon weather meter 90 hours
Can you tell me Residual rate (%) for the items I'm about to list?
Give bare numbers, in %.

See these solved cases before continuing.
Molecule	Parameter measured	Unit tag	Quantitative readout
COc1ccc(C2(c3ccc(OC)cc3)C=Cc3c4c(c5cc(N(C)c6ccc(F)cc6)c(OC)cc5c3O2)-c2ccccc2C4(C)C)cc1	Residual rate (%)	%	84
CCCC1(CCC)c2ccccc2-c2c1c1c(c3cc(OC)c(N(C)c4ccccc4)cc23)OC(c2ccc(OC)cc2)(c2ccc(OC)cc2)C=C1	Residual rate (%)	%	90
CCCOc1ccc(C2(c3ccc(OCCC)cc3)C=Cc3c4c(c5cc(N(C)c6ccc(C)cc6)c(OC)cc5c3O2)-c2ccccc2C4(CCCCOC)CCCCOC)cc1	Residual rate (%)	%	85
COc1ccc(C2(c3ccc(N4CCOCC4)cc3)C=Cc3c4c(c5cc(N6CCCc7ccccc76)c(OC)cc5c3O2)-c2ccc(C)cc2C4(CCCC(F)(F)F)CCCC(F)(F)F)cc1 (centres unmarked)	Residual rate (%)	%	80

Could you now look at the following molecule, please?
Exam item: Need Residual rate (%), item CCCOc1ccc(C2(c3ccc(OC)cc3)C=Cc3c4c(c5cc(N(C)c6ccccc6)c(C)cc5c3O2)-c2ccc(C)cc2C4(CCCCOC)CCCCOC)cc1 (centres unmarked)
Marked response: 84
